# Test system: RBL-2H3 mast cells
# Assay Info: Degranulation assay, β-hexosaminidase release
# Assay type: cell-based, rat
# Condition Notes: 10 µM PTD-fused peptide without SLO (LY294002 as positive control), DNP-BSA stimulation, no A23187 pretreatment; three independent experiments (Figure 2A gray bars, 2C)
Assay Endpoint: reduction of β-hexosaminidase release

> print(dat)
                                   sequence  measured.result
1  SARHSEIQQLERTIREL [Syn4N, 17-mer peptide, N-terminal region of syntaxin 4 SNARE motif]           30–40%
2  QSLDRVTETQAQVDELK [Vp7N, 17-mer peptide, N-terminal region of VAMP7 SNARE motif]            0–20%
3  KIKHVQNQVDEVIDVMQ [Vp4N, 17-mer peptide, N-terminal region of VAMP4 SNARE motif]            0–20%
4  LQSEVEGVKNIMTQNVE [Vp8N, 17-mer peptide, N-terminal region of VAMP8 SNARE motif]           30–40%

Reference source: paper PMC5904360
